- methodDescription: protein stability index of a GFP-peptide fusion (GPS, HEK-293T) (PSI 1-6); higher = more stable;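 note: 24-mer peptide tiles fused after GFP, lentivirally expressed, FACS-sorted into six equal bins by GFP/DsRed ratio, decoded by Illumina sequencing, PSI is the read-weighted mean bin number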
- runConditions: treatment: MLN4924 1 uM, 8 h; c terminus: a fixed tail appended
Outcome label depends on protein stability index relative to 3: at/above gives y, below gives n.

Decide: protein stability index of VGKGEILASLQDGAAESPYGHPAG [RAB40B] >= 3? y

What about this sequence? LRQEMVNLRATDVRLMRQLLVINE [LURAP1L] n

What about this sequence? VPVSFIFIFTFVKKKKIGFYFEVC [PCDHGA10] n

What about this sequence? LCVNYFFYGETVADYFATFVQREE [CDS1] n

What about this sequence? EYAWCLVRSKYNDDIRKGIVLLEE [FIS1] n

What about this sequence? PDPTPPEPEEEILGSDDEEQEDPA [SRPK2] y

What about this sequence? CATDTKNVQFVFDAVTDVIIKNNL [GNAI1] n

What about this sequence? RSVDVVVSSVFLLTLSIAFICCAQ [PHTF1] y

What about this sequence? GYSSLDQSPDEKPLVALDTDSDDD [FAM219A] y

What about this sequence? GSRSNGMWAHSMTVQDYQDLIDRG [ATE1] y

What about this sequence? EVLRMCVAVKKKLQLYFWKDREFH [VPS39] n

What about this sequence? GASFTQKGNLLRHIKLHSGEKPFK [IKZF1] y

What about this sequence? NSTQADEGKTKKGVLEAPDTQVNP [FBXO34] y

---

- methodDescription: protein stability index of a GFP-peptide fusion (GPS, HEK-293T) (PSI 1-6); higher = more stable
- runConditions: treatment: DMSO; c terminus: a fixed tail appended
endpointLabel: protein stability index
Give your answer as a number; write no unit.

Entry under review: SEQEHFLIVPFGLLYSEVTASSLV [ADD1] . Reported protein stability index? 2.65

What about this sequence? LSLESEGAGEGAAASPELSALEEA [TPPP] 5.52

What about this sequence? LELLGATYVDKKRDLLGALKHWRR [FEM1A] 2.48

What about this sequence? QPPEESQPPQSQAQVPPAAPHHHH [PLK2] 5.41

What about this sequence? QRLVEALEENELTSLAEDLLGLTD [TRADD] 4.28

What about this sequence? DPANCDYVIVSGAQRKEERWDMAD [YJU2B] 4.74

What about this sequence? KIIAVGVIDILPNCVSSVYLYYDP [ATE1] 2.62

---

- methodDescription: protein stability index of a GFP-peptide fusion (GPS, HEK-293T) (PSI 1-6); higher = more stable
- runConditions: treatment: DMSO; c terminus: a fixed tail appended
Outcome label depends on protein stability index relative to 4: at/above gives Met, below gives Not met.

Decide: protein stability index of SLRFNGRVLFIKDVIGDEICCWSF [KCTD10] >= 4? Not met

What about this sequence? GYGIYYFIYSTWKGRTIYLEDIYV [SAT2] Not met

What about this sequence? KGYLFHTVAGKHQDLKYISPEIMA [CDC25A] Not met

What about this sequence? TLREITDQEHNVAALKQAIKDKEA [TEKT4] Met

What about this sequence? CIGQRRFHTMDELVEHYKKAPIFT [NCK2] Not met

What about this sequence? FYDKQLKVLLSGATFLVTFGNSEK [ZFYVE21] Not met

What about this sequence? EKNKHIFPASRWEPYDPEKKWDKY [FAM50A] Not met

What about this sequence? QSSKRSSRSVEDDKEGHLVCRIGD [CLK3] Met

What about this sequence? ERYDPNIDQWSMLGDMQTAREGAG [KLHL12] Met

What about this sequence? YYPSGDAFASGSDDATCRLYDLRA [GNB5] Not met

What about this sequence? ENYLNRCMDQERLRRESTSQKEMD [FCHO1] Met

What about this sequence? GPRFGPRNDKIKHVQNQVDEVIDV [VAMP4] Met

What about this sequence? MEREFNNLLALGTDRKLDDGDDKV [PPFIA4] Met

What about this sequence? MSERLRPRKRRRNGNEEDNHLPPQ [FAM104A] Met

What about this sequence? GLLDLNNAILQLVKKYKSMKLEKE [ESRRG] Not met

What about this sequence? QFIANLDQLNDGQDFAKDLLKTLY [PSD2] Not met

What about this sequence? RRMCFVDPVRQCAECALVSLKEAE [ZFYVE21] Not met

What about this sequence? CKKGDPKHGKRKRGRPRKLSKEYW [ELF3] Not met

What about this sequence? EERFRPLTFHGLILRSQLVTLLVR [CLCN6] Not met

What about this sequence? ITDNFCYFRHADPTWQNSIRHNLS [FOXJ1] Not met

What about this sequence? LACLHVACVVQQKDARQWFAELSV [CCNC] Not met

What about this sequence? AEDFSTMDEISEKLKKGICEALED [MATN2] Met

What about this sequence? EATSHYIIELLASDAGSPSLHKHL [PCDHGC5] Not met

What about this sequence? HVHCFTCAACKTPIRNRAFYMEEG [PDLIM7] Not met

What about this sequence? GAGAEESELQAYIAQCQDSPTSGK [MCOLN1] Met

What about this sequence? EAPALPAPAAPMVSKGAESSRSSE [BRD3] Met

What about this sequence? IENLAKANPQYTVYSQASTMSIPV [PPP2R5C] Not met

What about this sequence? PANTQINDIRIFLEKVLEENAQKK [VPS39] Not met

What about this sequence? PLLPSDLRRTGCAALRIANCKLFR [GAN] Not met

What about this sequence? IIMWDIGGRKGRTLLLQGHHDKVQ [WDFY1] Not met

What about this sequence? IVAVIDSAQLQELVCHVMMGNLVM [INTS3] Not met

What about this sequence? DALNAYVCKGLPQHEEICLGLFTL [INTS3] Not met

What about this sequence? LDSSLASLVGNLGISGTTTKKGDL [SNAP91] Met

What about this sequence? KQLIYRVRRTDDTPVVLVGNKSDL [RIT1] Not met

What about this sequence? GAGRRRRAGGPPRPMSEPGAGAGS [SMAD6] Met
